Molecular target: Hco ACR-16/Hco RIC3 stable cell line (Haemonchus contortus, UniProt A9Y2C3)
Sequence (A9Y2C3 1-494): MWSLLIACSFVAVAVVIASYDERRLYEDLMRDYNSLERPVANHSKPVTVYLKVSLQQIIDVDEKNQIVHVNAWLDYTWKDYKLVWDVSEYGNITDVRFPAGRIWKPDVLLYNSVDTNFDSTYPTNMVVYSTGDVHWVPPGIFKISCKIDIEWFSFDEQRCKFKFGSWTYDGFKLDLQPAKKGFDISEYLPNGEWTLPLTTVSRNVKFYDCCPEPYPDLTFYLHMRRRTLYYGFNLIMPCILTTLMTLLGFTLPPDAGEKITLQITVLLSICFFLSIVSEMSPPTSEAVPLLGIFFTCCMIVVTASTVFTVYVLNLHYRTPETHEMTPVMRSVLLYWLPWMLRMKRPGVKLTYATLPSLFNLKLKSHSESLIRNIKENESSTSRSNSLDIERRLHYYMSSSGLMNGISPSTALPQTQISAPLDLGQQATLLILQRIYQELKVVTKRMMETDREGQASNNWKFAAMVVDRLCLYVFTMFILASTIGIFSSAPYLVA
Experiment: Ca2+ measurement in 384-well plate format on FDSS6000 (Fluo-4AM)
Assay type: cell-based
metric: EC50 (nM)
Please respond with the number in nM and leave the unit unwritten.

Form field EC50, entry Clc1ccc(C2CC3CCC2N3)cn1 (stereo not shown) [Epibatidine] : 5

====

Would you kindly list EC50 for each of these compounds?
target: Hco ACR-16/hRIC3 cell line (Haemonchus contortus); assay: Ca2+ measurement in 384-well plate format on FDSS6000 (Fluo-4AM); type: cell-based
Please respond with the number in nM and leave the unit unwritten.

Form field EC50, entry CN1CCCC1c1cccnc1 (stereo not drawn) [Nicotine] : 200

Form field EC50, entry CC(=O)OCC[N+](C)(C)C [Acetylcholine] : 480

Form field EC50, entry Clc1ccc(C2CC3CCC2N3)cn1 (stereo not drawn) [Epibatidine] : 6

====

Target: Hco ACR-16/hRIC3 cell line (Haemonchus contortus)
Sequence (A9Y2C3 1-494): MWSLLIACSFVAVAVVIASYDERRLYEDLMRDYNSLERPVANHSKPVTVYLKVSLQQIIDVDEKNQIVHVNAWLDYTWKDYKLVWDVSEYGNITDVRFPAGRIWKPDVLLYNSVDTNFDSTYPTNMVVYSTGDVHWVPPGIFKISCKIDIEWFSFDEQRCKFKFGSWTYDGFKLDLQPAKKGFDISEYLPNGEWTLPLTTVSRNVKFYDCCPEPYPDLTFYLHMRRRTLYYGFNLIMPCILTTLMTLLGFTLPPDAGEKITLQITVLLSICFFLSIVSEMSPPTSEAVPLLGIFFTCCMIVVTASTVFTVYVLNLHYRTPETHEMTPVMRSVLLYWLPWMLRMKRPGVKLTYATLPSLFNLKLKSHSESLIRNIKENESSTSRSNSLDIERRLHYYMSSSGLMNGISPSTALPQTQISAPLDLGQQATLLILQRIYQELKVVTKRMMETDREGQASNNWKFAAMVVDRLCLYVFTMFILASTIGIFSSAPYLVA
Sequence (Q7Z5B4 29-369 partner): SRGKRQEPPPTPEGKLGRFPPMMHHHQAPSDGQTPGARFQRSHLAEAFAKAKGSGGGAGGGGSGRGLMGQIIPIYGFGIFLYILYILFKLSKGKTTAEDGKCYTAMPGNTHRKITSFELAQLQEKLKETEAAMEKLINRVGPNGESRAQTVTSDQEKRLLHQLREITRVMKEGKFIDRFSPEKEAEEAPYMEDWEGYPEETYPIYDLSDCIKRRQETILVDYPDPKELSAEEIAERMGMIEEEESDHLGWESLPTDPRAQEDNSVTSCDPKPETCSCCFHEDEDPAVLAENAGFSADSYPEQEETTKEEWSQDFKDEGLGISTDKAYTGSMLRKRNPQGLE
Assay: Ca2+ measurement in 384-well plate format on FDSS6000 (Fluo-4AM)
Type: cell-based
Conditions: four-parameter logistic fit; cell line not named in legend; read-out: XC50 from concentration-response curve (FIG. 8)
metric: pEC50
Here pEC50 is given on a logarithmic scale as minus log10 of the concentration in mol/L.

Form field pEC50, entry COc1cc(OC)c(NC(=O)Nc2cc(C)on2)cc1Cl : 6.80

The origin of these recorded values is patent US10345292B2.
